test: Drug uptake in Harlan Sprague-Dawley rat brain at 10 mg/kg, po after 4 hrs; assay type: ADME, organism-based; set-up: dose 10 mg/kg, route oral; details: read-out: Drug uptake
ENDPOINT: concentration at 4 h (nM)

[[record]]
input_smiles = "CC(C)c1cccc(-c2c(-c3ccc4nn(C)cc4c3)nsc2NC(=O)[C@@H]2C[C@H]2C)n1.Cl"
unit_symbol = "nM"
number = 2590


====

assay: Cmax in Harlan Sprague-Dawley rat at 1.5 mg/kg, po; assay type: ADME, organism-based; design: dose 1.5 mg/kg, route oral; conditions: in vivo
ENDPOINT: Cmax (ng/mL)

[[record]]
input_smiles = "CC(C)c1cccc(-c2c(-c3ccc4nn(C)cc4c3)nsc2NC(=O)[C@@H]2C[C@H]2C)n1.Cl"
number = 255

